- assay protocol: logP by HPLC on reversed-phase columns (C 18), EEC Directive 79/831 Annex V.A8
- Type: physicochemical
- details: reversed-phase C18 HPLC column; HPLC, reversed-phase C 18, acidic range pH 2.7, 0.1% aqueous formic acid/acetonitrile; read-out: log P
metric: chromatographic logP

[[record]]
structure_as_smiles = "Cc1cc(Br)cc(OC(F)F)c1NC(=O)c1cc(Cn2nnc(C(F)(F)F)n2)nn1-c1ncccc1Cl"
observed = 3.77

[[record]]
structure_as_smiles = "Cc1cc(Cl)cc(C(=O)O)c1NC(=O)c1cc(Cn2nnc(C(F)(F)F)n2)nn1-c1ncccc1Cl"
observed = 3.05

[[record]]
structure_as_smiles = "O=C(O)c1cc(Cl)cc(Cl)c1NC(=O)c1cc(Cn2nnc(C(F)F)n2)nn1-c1ncccc1Cl"
observed = 2.55

[[record]]
structure_as_smiles = "O=C(O)c1cc(Cl)cc(Cl)c1NC(=O)c1cc(Cn2ncc(C(F)(F)F)n2)nn1-c1ncccc1Cl"
observed = 3.03

[[record]]
structure_as_smiles = "Cc1cc(F)cc(C(=O)O)c1NC(=O)c1cc(Cn2nnc(C(F)(F)F)n2)nn1-c1ncccc1Cl"
observed = 2.75

[[record]]
structure_as_smiles = "CNC(=S)c1cc(Cl)cc(C)c1NC(=O)c1cc(Cn2nnc(C(F)(F)F)n2)nn1-c1ncccc1Cl"
observed = 3.42

[[record]]
structure_as_smiles = "Cc1cccc(C(=O)C2CC2)c1NC(=O)c1cc(Cn2nnc(C(F)(F)F)n2)nn1-c1ncccc1Cl"
observed = 3.33


----------
- assay protocol: logP by HPLC on reversed-phase columns (C 18), EEC Directive 79/831 Annex V.A8
- Type: physicochemical
- details: HPLC, reversed-phase C 18, acidic range pH 2.7, 0.1% aqueous formic acid/acetonitrile; read-out: log P
The following molecules are listed with their measured chromatographic logP values.
Reply: number alone, nothing else.

[[record]]
structure_as_smiles = "O=C(O)c1cc(Cl)cc(Cl)c1NC(=O)c1cc(Cn2nc(C(F)(F)C(F)(F)C(F)(F)F)cc2C(F)(F)F)nn1-c1ncccc1Cl"
observed = 4.4

[[record]]
structure_as_smiles = "Cc1cccc(C(=O)NS(C)(=O)=O)c1N"
observed = 1.1

[[record]]
structure_as_smiles = "Cc1cc(Br)cc(OC(F)F)c1N"
observed = 2.84


Request: # get_value(readout='chromatographic logP', item= Cc1cc(C#N)cc(OC(F)F)c1N )
Response: 1.9

----------
- System: caterpillars of the armyworm (Spodoptera frugiperda)
- assay protocol: Spodoptera frugiperda test (SPODFR spray treatment)
- Format: in vivo
- details: foliar, 168 h, 100 g/ha, sprayed maize leaf discs, after 7 days, read-out: activity (kill of caterpillars)
Catalogue of pest or weed control at 100 g/ha readings, one per entry.
The answer is to be given in %; state only the numeric part.

Known pest or weed control at 100 g/ha results, listed for orientation:
[[record]]
compound = "Cc1cc(Cl)cc(OC(F)(F)F)c1NC(=O)c1cc(Cn2nnc(C(F)(F)F)n2)nn1-c1ncccc1Cl [Compound 10]"
observed = 100

[[record]]
compound = "Cc1cc(I)cc(C(=O)O)c1NC(=O)c1cc(Cn2nnc(C(F)(F)C(F)(F)F)n2)nn1-c1ncccc1Br [Compound 2]"
observed = 100

[[record]]
compound = "Cc1cc(Cl)cc(C(=S)NC(C)(C)C)c1NC(=O)c1cc(Cn2nnc(C(F)(F)F)n2)nn1-c1ncccc1Cl [Compound 6]"
observed = 100

[[record]]
compound = "Cc1cc(C#N)cc(OC(F)F)c1NC(=O)c1cc(Cn2nnc(C(F)(F)F)n2)nn1-c1ncccc1Cl [Compound 9]"
observed = 100

[[record]]
compound = "Cc1cc(I)cc(C(=O)O)c1NC(=O)c1cc(Cn2ncc(C(F)(F)F)n2)nn1-c1ncccc1Cl [Compound 27]"
observed = 83


Request: Given the entry COC(=O)c1cc(F)cc(C)c1NC(=O)c1cc(Cn2nnc(C(F)(F)F)n2)nn1-c1ncccc1Cl [Compound 29] , report its measured pest or weed control at 100 g/ha.
Response: 100

Request: Consider next the compound Cc1cc(F)cc(C(=O)O)c1NC(=O)c1cc(Cn2nnc(C(F)(F)C(F)(F)F)n2)nn1-c1ncccc1Br [Compound 3] in the same way.
Response: 100

----------
Each entry below lists one item and its recorded pest or weed control at 100 g/ha value.
- System: caterpillars of the armyworm (Spodoptera frugiperda)
- assay protocol: Spodoptera frugiperda test (SPODFR spray treatment)
- Assay type: in vivo
- details: foliar, 168 h, 100 g/ha, sprayed maize leaf discs, after 7 days, read-out: activity (kill of caterpillars)
Give the number; % is assumed, so skip it.

Example cases with answers are listed next.
[[record]]
structure_as_smiles = "CNC(=S)c1cc(I)cc(C)c1NC(=O)c1cc(Cn2nnc(C(F)(F)F)n2)nn1-c1ncccc1Cl"
metric = "pest or weed control at 100 g/ha"
unit_name = "%"
observed = 100

[[record]]
structure_as_smiles = "Cc1cc(Cl)cc(C(=O)O)c1NC(=O)c1cc(Cn2nnc(C(F)(F)F)n2)nn1-c1ncccc1Cl"
metric = "pest or weed control at 100 g/ha"
unit_name = "%"
observed = 83

[[record]]
structure_as_smiles = "CNC(=S)c1cc(Cl)cc(C)c1NC(=O)c1cc(Cn2nnc(C(F)(F)F)n2)nn1-c1ncccc1Cl"
metric = "pest or weed control at 100 g/ha"
unit_name = "%"
observed = 100

[[record]]
structure_as_smiles = "O=C(O)c1cc(Cl)cc(Cl)c1NC(=O)c1cc(Cn2nnc(C(F)(F)F)n2)nn1-c1ncccc1Cl"
metric = "pest or weed control at 100 g/ha"
unit_name = "%"
observed = 83


Request: Can you share its pest or weed control at 100 g/ha? I mean this molecule: Cc1cc(C#N)cc(C(=O)O)c1NC(=O)c1cc(Cn2nnc(C(F)(F)F)n2)nn1-c1ncccc1Cl
Response: 100

Request: Now this one: O=C(O)c1cc(Cl)cc(Cl)c1NC(=O)c1cc(Cn2ncc(C(F)(F)F)n2)nn1-c1ncccc1Cl
Response: 100

Request: What do you have for Cc1cc(C#N)cc(C(=S)NC(C)(C)C)c1NC(=O)c1cc(Cn2nnc(C(F)(F)F)n2)nn1-c1ncccc1Cl ?
Response: 83

Request: Item: Cc1cccc(C(=O)C2CC2)c1NC(=O)c1cc(Cn2nnc(C(F)(F)F)n2)nn1-c1ncccc1Cl
Response: 100
